Tested on: MALME-3M melanoma
Assay: NCI-60 one-dose screen, 48 h (100 = growth as untreated, 0 = no growth, -100 = all killed)
Conditions: 10 µM unless noted
About 83,000 compounds went through this panel and 20% of them were active in at least one assay; those are over-represented in the sample as a whole. Active and inactive are the calls of the source. Rule for the calls: active = growth percent below 10; inactive = the rest.
Observed property: growth

These recorded examples may help you get a feel for the data.
Cc1c(C(N)=O)sc2c1c(=O)n(Cc1ccccc1)c1nnc(S(C)(=O)=O)n21 :: 92.4% (inactive)
Cc1nnc(/N=C2\NC(=O)/C(=C/C=C/c3ccccc3)S2)s1 :: 54.1% (inactive)
CSc1nc(N)n2nccc2n1 :: 95.3% (inactive)
COc1cc2oc(-c3ccc(NC(=O)c4ccccc4)cc3)cc(=O)c2c(OC)c1OC :: 74.8% (inactive)
CCC(CCCN1C(=O)c2ccccc2C1=O)Nc1cc(OC)cc2cccnc12 (stereo unspecified) :: 142% (inactive)

Consider the record given below.
Q. Please look at this compound and report its growth: CC(C)(C)OC(=O)N1C/C(=C\c2ccccc2)C(=O)/C(=C/c2ccccc2)C1
A. 113% (inactive)

----------
Test system: MALME-3M melanoma
Assay: NCI-60 one-dose screen, 48 h (100 = growth as untreated, 0 = no growth, -100 = all killed)
Conditions: 10 µM unless noted
Method: Cells are grown in 96 well plates and exposed to the test compound for 48 hours. Compounds are tested at a single concentration, which is 10^-5 M for most compounds. The reported endpoint is percent growth (GI% or GIPRCNT), where numbers from 0 - 100% represent growth inhibition, and numbers from -100% - 0 represent cell death. For example, a value of 40 represents 60% growth inhibition. A value of 0 means no net growth occurred over the course of the experiment. […]
Compounds without any hit were thinned out: in the full panel of roughly 83,000, 20% have a hit.
Observed property: growth (%)
Quick note: give the figure in %, leave out the unit.

Known results for molecules:
COc1cccc(-c2cc(-c3cc4ccccc4oc3=O)nc(N)n2)c1 :: 121
CCCCCCCCCCN1CC2CCCCC2C1 (centres undefined) :: 108

Q. Please indicate growth recorded for N=C(N)c1ccc(-c2ccc(-c3ccc(F)cc3)s2)cc1
A. -75.6

Q. Check the records and state growth for CC(=O)Oc1cc2ccccc2cc1C(C)C
A. 111

Q. Give me measured growth, please, for this molecule: O=C(Nc1cccc(Cn2c(=O)[nH]c3ccc(Oc4ncccn4)cc3c2=O)c1)c1ccc(Cl)cc1
A. 41

Q. Fill in growth for record c1ccc(Nc2ccccn2)cc1
A. 103

Q. Return growth for the following molecule: COC(=O)CC(=O)C(=O)OC
A. 107

Q. Read the entry CC(=O)Nc1ccc(C(=O)/C=C/c2ccc(N(C)C)cc2)cc1 and write its reported growth.
A. 88.9

Q. Give the reported growth for this molecule. COc1cc2c(/C=C3\C(=O)Nc4ccc(Br)cc43)c(Cl)n(C)c2cc1C
A. 21.9

----------
Test system: SW-620 colon
Experiment: NCI-60 one-dose screen, 48 h (100 = growth as untreated, 0 = no growth, -100 = all killed)
Settings: 10 µM unless noted
Compounds without any hit were thinned out: in the full panel of roughly 83,000, 20% have a hit. Calls of active or inactive are those of the source. Rule for the calls: active = growth percent below 10; inactive = the rest.
Observed property: growth

O=C(CCC(=O)N(CCO)CCO)N(CCO)CCO :: 106% (inactive)
CCOc1ccccc1/C=N\N=C(N/N=C/c1ccccc1OCC)N/N=C/c1ccccc1OCC :: 12.1% (inactive)
COc1cc(NC(=O)CSc2nc3ccc(Cl)cc3c(=O)n2-c2ccc(F)cc2)cc(OC)c1OC :: 95.4% (inactive)
COc1ccc(-n2nnnc2-c2cn[nH]c2C(F)(F)F)cc1 :: 94.6% (inactive)
Cc1ccc([C@@H]2C[C@H](O)Cc3ccccc3N2)s1 :: 101% (inactive)
N=C(N)c1ccc(-c2ccc(-c3cc(Cl)cc(Cl)c3)s2)cc1 :: -70.9% (active)

Q. Output growth of CN(C)CCOC(=O)C(C)(C)C
A. 91.6% (inactive)

Q. Answer with the recorded growth for the compound listed here: COC(c1ccccc1)C(Br)C(=O)c1ccccc1 (stereo not drawn)
A. 125% (inactive)

Q. Tell me its growth given CCCC(CCC)Oc1ccc(CCCC2=C(O)c3ccccc3C(=O)C2=O)cc1 as the entry.
A. 28.1% (inactive)

Q. Tell me measured growth for COc1ccccc1Cn1cc2c(c1)-c1oncc1CC2 please.
A. 27% (inactive)

Q. Give the reported growth for this compound. COc1ccc(-c2nnc(SCC(=O)Nc3ccc(C(=O)/C=C/c4cc(OC)c(OC)c(OC)c4)cc3)n2-c2ccccc2)cc1OC
A. 12.2% [100 µM] (inactive)

Q. Dear colleague, please send me the reported growth for C/C=C/C/C=C/[C@H](C)C[C@H](O)[C@@H]1C[C@@H]2O[C@H]2/C=C/[C@H](O)[C@@H](O)/C=C/C[C@H](C)CC(=O)O1 when you can.
A. 94.1% (inactive)

Q. Return value of growth for input C=CCNC(=S)NNc1ccc([N+](=O)[O-])cn1 , no commentary.
A. 92% (inactive)

Q. Item CCCCN(CCC)CCCCCCCCCCN1CCCc2ccccc21 : provide growth
A. 43.9% (inactive)

Q. Dear colleague, please send me the reported growth for CN1NC(c2ccccc2)NN(C)C1=O when you can.
A. 91.1% (inactive)

Q. Recall and state the measured growth for C/C=C(/C)C(=O)OC1C=C(CO)C(=O)C(OC(=O)/C(C)=C\C)C1C(C)C (stereo not drawn) .
A. -59% (active)

Q. Fill in growth for record COc1ccc(Cn2cc3c(c2)-c2oncc2CC3)cc1OC
A. 21.9% (inactive)

Q. Respond only with growth recorded for CCC1(CC)C(OC)NC(Br)=C(C#N)C1(C#N)C(N)=O (stereo not drawn)
A. 101% (inactive)

Q. Supply reported growth belonging to this compound: CC(C)(CNC1CCCCC1)OC(=O)c1ccccc1
A. 110% (inactive)

Q. Tell me growth reported for COC(=O)/C=C1/CCCCC1(C)C(=O)OC (stereo not drawn)
A. 106% (inactive)

Q. Report growth, nothing else, for this compound: COc1ccccc1Nc1nnc(COc2ccc(CNC(=O)CCCC/C=C/C(C)C)cc2OC)o1
A. 105% (inactive)

Q. Answer with the recorded growth of Ic1ccc(SSc2ccc(I)cc2)cc1 only.
A. 106% (inactive)

Q. Please report growth for the following compound: CC1C(=O)CCCC1=O
A. 113% (inactive)
